Listing of entries alongside the reported pEC50.
# assay-target: T1, biotinylated PD1-ECD-AviHis (human, UniProt Q15116 25-170, biotinylated)
# T1 construct: also called huPD1; hu PD1; not shown: Avi-His tag
# T1 sequence (Q15116 25-170): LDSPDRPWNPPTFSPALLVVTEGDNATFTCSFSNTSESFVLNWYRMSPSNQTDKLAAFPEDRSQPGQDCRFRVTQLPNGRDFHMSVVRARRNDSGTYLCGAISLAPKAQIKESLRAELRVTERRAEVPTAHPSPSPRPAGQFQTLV
# run-description: ELISA (hu PD1, as described above)
# Description: After washing (3×90 μl/well with PBST-buffer) 25 μl/well goat-anti-human H+L-POD (JIR, JIR109-036-088)/Sheep-anti-mouse-POD (GE Healthcare; NA9310) was added in 1:2000/1:1000 dilution and incubated at RT for 1 h on shaker. After washing (3×90 μl/well with PBST-buffer) 25 μl/well TMB substrate (Roche Catalogue No. 11835033001) was added and incubated until OD 2-3. Measurement took place at 370/492 nm.
In simple prose, pEC50 is minus the logarithm base ten of a concentration in moles per litre.

1) PD1-0103-0313 (antibody, human IgG1, V domains shown, Humanized; also called PD1-103-0313; PD-0103-0313) VH: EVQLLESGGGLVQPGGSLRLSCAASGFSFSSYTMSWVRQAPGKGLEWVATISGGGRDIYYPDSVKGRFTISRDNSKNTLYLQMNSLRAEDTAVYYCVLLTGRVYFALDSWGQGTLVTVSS VL: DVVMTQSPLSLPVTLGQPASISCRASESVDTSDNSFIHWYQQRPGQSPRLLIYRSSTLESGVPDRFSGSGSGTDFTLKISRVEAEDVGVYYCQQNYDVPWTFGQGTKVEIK    10.15

Lab book: pEC50 of chimeric PD1-0103 (antibody, human IgG1, V domains shown, also called chiPD1-0103) VH: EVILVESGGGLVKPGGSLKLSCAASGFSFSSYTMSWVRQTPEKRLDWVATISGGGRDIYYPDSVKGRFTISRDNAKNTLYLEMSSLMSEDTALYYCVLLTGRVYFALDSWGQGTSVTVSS VL: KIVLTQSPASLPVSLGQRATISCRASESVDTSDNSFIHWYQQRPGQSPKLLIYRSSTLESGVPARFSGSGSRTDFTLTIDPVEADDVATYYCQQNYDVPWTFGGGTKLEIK noted as 9.70

Lab book: pEC50 of PD1-0103-0312 (antibody, human IgG1, V domains shown, Humanized; also called PD1-103-0312; PD-0103-0312) VH: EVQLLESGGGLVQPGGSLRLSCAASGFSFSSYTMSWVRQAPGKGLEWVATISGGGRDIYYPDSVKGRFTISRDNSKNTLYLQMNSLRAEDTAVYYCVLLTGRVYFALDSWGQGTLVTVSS VL: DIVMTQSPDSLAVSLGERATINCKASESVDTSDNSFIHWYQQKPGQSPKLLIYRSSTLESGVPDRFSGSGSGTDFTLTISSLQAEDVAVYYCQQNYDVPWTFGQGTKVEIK noted as 10.00

Reference source for all entries: patent US20220387586A1
